- ASSAY_SYSTEM: KSP motor domain (Homo sapiens, UniProt P52732)
- Construct: 100 nM KSP motor domain, 50 μg/ml microtubules
- ASSAY_NOTES: KSP ATPase assay (IC50 / Ki)
- Type: biochemical
- CONDITION_LABEL: R enantiomer, synthesized as single enantiomer; read-out: Ki (μM) R enantiomer
# Ki listing for each entry below

CC(c1nc2ccccc2c(=O)n1Cc1ccccc1)N(CCN)C(=O)c1ccc(Br)cc1 (centres unmarked) | < 0.1 µM

Returns the measured Ki for the input molecule. Input: CCC(c1nc2cc(Cl)ccc2c(=O)n1Cc1ccccc1)N(CCN)C(=O)c1ccc(Br)cc1 (centres unmarked) < 0.05 µM

---

- ASSAY_SYSTEM: KSP motor domain (Homo sapiens, UniProt P52732)
- Construct: 100 nM KSP motor domain, 50 μg/ml microtubules
- Sequence (P52732 18-359 limits assumed): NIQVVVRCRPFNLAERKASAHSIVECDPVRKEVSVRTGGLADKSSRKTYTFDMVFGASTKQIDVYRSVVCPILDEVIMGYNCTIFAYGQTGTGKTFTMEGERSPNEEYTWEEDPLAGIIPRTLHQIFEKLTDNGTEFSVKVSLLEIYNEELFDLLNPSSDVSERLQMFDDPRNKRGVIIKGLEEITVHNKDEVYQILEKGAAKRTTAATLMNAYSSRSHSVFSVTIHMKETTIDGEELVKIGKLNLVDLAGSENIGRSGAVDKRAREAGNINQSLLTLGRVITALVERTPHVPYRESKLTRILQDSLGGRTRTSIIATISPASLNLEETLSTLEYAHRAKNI
- ASSAY_NOTES: KSP ATPase assay (IC50 / Ki)
- Type: biochemical
- CONDITION_LABEL: R isomer; read-out: R Isomer IC50
- Description: One measure of inhibition is IC50, defined as the concentration of the composition at which the activity of KSP is decreased by fifty percent. […] The Ki for a compound is determined from the IC50 based on three assumptions. […] Measurement of a composition's IC50 for KSP activity uses an ATPase assay. […] The microtiter plate is then transferred to a microplate absorbance reader and multiple absorbance readings at 340 nm are taken for each well in a kinetic mode. […]
pIC50: −log10 of the molar value.
MEASURED_PROPERTY: pIC50

Requested field: pIC50. Item: CCC(c1nc2cc(Cl)ccc2c(=O)n1Cc1ccccc1)N(CCCN)C(=O)c1ccc(C)cc1 (racemic) > 7.30
